Test system: MCF7
Experiment: Cytotoxicity against human MCF7 cells after 24 hrs by WST-1 assay
Type: functional, cell-based
Details: MCF7, 24 h
pIC50: −log10 of the molar value.

{"columns": ["CHEMICAL STRING", "pIC50"],
 "data": [
  ["CC(C)C[C@]1(CCO)C[C@H](CN=[N+]=[N-])ON1Cc1ccc(-c2ccccc2)cc1", 4.57]
]}
